target_or_system: T1, His-tagged human TIGIT (human, UniProt Q495A1 22-141)
T1 construct: SPR analyte; also called human TIGIT protein; not shown: His tag
T1 sequence: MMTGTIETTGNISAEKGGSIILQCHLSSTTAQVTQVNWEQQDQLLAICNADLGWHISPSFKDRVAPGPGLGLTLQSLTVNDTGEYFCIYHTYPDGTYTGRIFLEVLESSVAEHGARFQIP
procedure_summary: SPR experiment 2, IgG from HEK293 supernatant captured

binder	koff [s⁻¹]
TIGIT-6 chimeric antibody (antibody, human IgG1, kappa, V domains shown, also called 6VH + 6VL) VH: QVQLKQSGPELVKPGASVKISCKTSGYTITENTMHWVKQSHGKSLEWIGGINPNNGGTSYNQQFKGKATLTVDKSSSTAYMELRSLTSEDSAVYYCTRSSYYRYDLDYWGQGTTVTVSS VL: DIQMTQSHKFMSTSVGDRVSITCKASQDVKTALAWYQQKPGQSPKLLIYSASYRYTGVPDRFTGSGSGTDFTFTISSVQAEDLAVYYCHQHYTTPWTFGGGTKLEIKR	0.00012
humanized TIGIT-6 antibody 6VH6.M3 + 6VL1.M1 (antibody, V domains shown, Full-length IgG, tested as HEK293 supernatant) VH: QVQLVQSGAEVKKPGASVKVSCKASGYTITENTMHWVRQAPGQRLEWIGGINPNNGGTSYSQKFQGRATLTVDTSASTAYMELSSLRSEDTAVYYCTRSSYYRYDLDYWGQGTTVTVSS VL: DIQMTQSPSSLSASVGDRVTITCQASQDIKTALAWYQQKPGKAPKLLIYSASYRYTGVPSRFSGSGSGTDFTFTISSLQPEDIATYYCHQHYTTPWTFGGGTKLEIK	0.00016
huTIGIT-6-2 (antibody, human IgG1, kappa, V domains shown, Humanized IgG; also called 6VH6.M5 + 6VL1.M1) VH: QVQLVQSGAEVKKPGASVKVSCKASGYTITENTMHWVRQAPGQRLEWIGGINPNNAGTSYSQKFQGRATLTVDTSASTAYMELSSLRSEDTAVYYCTRSSYYRYDLDYWGQGTTVTVSS VL: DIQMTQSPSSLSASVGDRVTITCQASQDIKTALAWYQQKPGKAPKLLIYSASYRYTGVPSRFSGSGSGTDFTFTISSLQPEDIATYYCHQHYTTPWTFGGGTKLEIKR	0.00022
